test system: σ receptors; experiment: Radioligand binding assay, σ receptors; settings: rat cerebral cortex, [3H]DTG 8 nM
Outcome label depends on σ [%] relative to 60%: at/above gives MET, below gives NOT MET.

Here are 3 molecules together with their reported answers.
Molecule	Discrete Label
CC1(C)Cc2cccc(OCCN3CCC(NS(=O)(=O)c4ccc5ccccc5c4)C3)c2O1 (centres unmarked)	NOT MET
O=S(=O)(N[C@@H]1CCN(CCCc2noc3cc(F)ccc23)C1)c1csc2ccccc12	MET
O=S(=O)(N[C@H]1CCN(CCCc2noc3cc(F)ccc23)C1)c1cc2ccccc2o1	MET

Check the entry "O=S(=O)(NC1CN(CCOc2cccc3[nH]ccc23)C1)c1cccc2ccccc12" : does σ [%] equal or exceed 60%?
NOT MET

Check the entry "Cc1cccc(S(=O)(=O)NC2CN(CCOc3cccc4[nH]ccc34)C2)c1" : does σ [%] equal or exceed 60%?
NOT MET

Check the entry Cc1cccc(S(=O)(=O)NC2CCN(CCCc3c[nH]c4ccc(F)cc34)C2)c1 (centres unmarked) : does σ [%] equal or exceed 60%?
MET

Check the entry "O=S(=O)(NCC1CN(CCOc2cccc3c2OCCO3)C1)c1cc2ccccc2o1" : does σ [%] equal or exceed 60%?
MET

Check the entry O=S(=O)(NC1CCN(CCCc2noc3cc(F)ccc23)C1)c1cccc2ccccc12 (centres unmarked) : does σ [%] equal or exceed 60%?
MET

Check the entry O=S(=O)(NC1CCN(CCOc2cccc3ccccc23)C1)c1cccc(O)c1 (centres unmarked) : does σ [%] equal or exceed 60%?
MET

----------
Target: 5-HT6 receptor (Homo sapiens, UniProt P50406)
Construct: purchased PerkinElmer
Sequence (P50406 whole entry): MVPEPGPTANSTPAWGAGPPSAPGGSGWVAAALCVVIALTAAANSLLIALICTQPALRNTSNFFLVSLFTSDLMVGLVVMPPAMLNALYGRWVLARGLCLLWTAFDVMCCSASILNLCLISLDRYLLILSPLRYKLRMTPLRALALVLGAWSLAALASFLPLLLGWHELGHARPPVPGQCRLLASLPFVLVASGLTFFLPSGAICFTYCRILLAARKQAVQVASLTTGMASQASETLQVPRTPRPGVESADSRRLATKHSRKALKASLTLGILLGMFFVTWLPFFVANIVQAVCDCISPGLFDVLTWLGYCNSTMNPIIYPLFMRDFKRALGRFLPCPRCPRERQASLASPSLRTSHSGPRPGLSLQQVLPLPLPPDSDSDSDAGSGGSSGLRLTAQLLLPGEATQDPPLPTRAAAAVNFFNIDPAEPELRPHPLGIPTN
Assay: Radioligand binding assay, serotoninergic 5-HT6 receptors
Conditions: binding assay result in %, Table 5a
Text: The specific ligand binding to the receptors is defined as the difference between the total binding and the non-specific binding determined in the presence of the excess of unlabelled ligand. The results are expressed as a percent of control specific binding ((measured specific binding/control specific binding)×100) and as a percent inhibition of control specific binding (100−((measured specific binding/control specific binding)×100)) obtained in the presence of the test compounds. […]
Endpoint Label: inhibition at 1 µM (%)
Write it as a number; the unit % goes unstated.

See these solved cases before continuing.
Compound	inhibition at 1 µM, %
Cn1ccc2cc(S(=O)(=O)NCC3CN(CCOc4cccc5ccccc45)C3)ccc21	100
O=S(=O)(NC1CCN(CCCc2noc3cc(F)ccc23)C1)c1cccc(Cl)c1 (centres unmarked)	75
O=S(=O)(NC1CCN(CCCc2noc3cc(F)ccc23)CC1)c1csc2ccccc12	79
O=S(=O)(NC1CCN(CCCc2noc3cc(F)ccc23)C1)c1ccc2c(c1)OCC2 (centres unmarked)	78

Shift focus to the following entry.
For "Cc1c(S(=O)(=O)N[C@H]2CCN(CCCc3noc4cc(F)ccc34)C2)sc2ccc(F)cc12" , write its inhibition at 1 µM.
100

----------
target: 5-HT6 receptor (Homo sapiens, UniProt P50406); construct: purchased PerkinElmer; assay: Radioligand binding assay, serotoninergic 5-HT6 receptors; conditions: binding assay result in %, Table 5a;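 also: test compound at 1 µM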
Endpoint Label: inhibition at 1 µM
Give the value; after it, write the unit.

Molecule	Assay Value
Cn1ccc2cc(S(=O)(=O)NCC3CCN(CCOc4cccc5c4OCCO5)C3)ccc21 (centres unmarked) [Compound 308]	44%

For O=S(=O)(NC1CCN(CCCc2c[nH]c3ccc(F)cc23)C1)c1ccc(F)cc1 (centres unmarked) [Compound 75] , write its inhibition at 1 µM.
94%

For O=S(=O)(N[C@@H]1CCN(CCCc2noc3cc(F)ccc23)C1)c1cc2ccccc2s1 [Compound 196] , write its inhibition at 1 µM.
99%

For O=S(=O)(NCC1CN(CCCc2noc3cc(F)ccc23)C1)c1cccc(Cl)c1 [Compound 137] , write its inhibition at 1 µM.
14%

For Cc1ccc2sc(S(=O)(=O)NC3CCN(CCCc4noc5cc(F)ccc45)C3)cc2c1 (centres unmarked) [Compound 226] , write its inhibition at 1 µM.
92%

For O=S(=O)(NC1CCN(CCCc2noc3cc(F)ccc23)C1)c1cccc(C(F)(F)F)c1 (centres unmarked) [Compound 15] , write its inhibition at 1 µM.
83%

For Cc1cc(S(=O)(=O)N[C@@H]2CCN(CCCc3noc4cc(F)ccc34)C2)c(C)s1 [Compound 222] , write its inhibition at 1 µM.
94%

For O=S(=O)(NC1CCN(CCCc2c[nH]c3ccc(Cl)cc23)C1)c1ccc(Cl)cc1 (centres unmarked) [Compound 85] , write its inhibition at 1 µM.
82%

----------
target: D2 dopaminergic receptors (Homo sapiens, UniProt P14416); assay: Cellular functional assay, D2 dopaminergic receptors; type: cell-based; settings: antagonism, D2S (h), HEK-293 cells, stimulus dopamine (30 nM)
Sequence (P14416 whole entry): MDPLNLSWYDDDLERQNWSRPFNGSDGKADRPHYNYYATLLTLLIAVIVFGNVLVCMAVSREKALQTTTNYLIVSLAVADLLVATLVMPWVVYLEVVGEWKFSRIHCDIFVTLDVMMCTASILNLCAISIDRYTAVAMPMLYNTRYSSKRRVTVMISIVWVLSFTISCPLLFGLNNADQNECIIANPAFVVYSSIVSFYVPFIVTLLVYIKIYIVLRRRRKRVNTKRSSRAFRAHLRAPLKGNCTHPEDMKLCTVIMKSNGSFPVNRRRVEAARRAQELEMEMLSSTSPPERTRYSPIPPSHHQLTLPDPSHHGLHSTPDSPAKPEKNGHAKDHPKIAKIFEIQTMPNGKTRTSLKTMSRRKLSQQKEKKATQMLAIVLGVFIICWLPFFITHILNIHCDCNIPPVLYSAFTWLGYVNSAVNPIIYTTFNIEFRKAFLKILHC
Endpoint Label: D2 antag [%] (%)
Write it as a number; the unit % goes unstated.

For "Cc1c(S(=O)(=O)N[C@@H]2CCN(CCCc3noc4cc(F)ccc34)C2)sc2ccc(F)cc12" , write its D2 antag [%].
95

For "O=S(=O)(N[C@H]1CCN(CCCc2noc3cc(F)ccc23)C1)c1cc2ccccc2s1" , write its D2 antag [%].
82

For "Cc1c(S(=O)(=O)N[C@H]2CCN(CCCc3noc4cc(F)ccc34)C2)sc2ccc(F)cc12" , write its D2 antag [%].
80

For "O=S(=O)(NCC1CN(CCOc2cccc3c2OCCO3)C1)c1ccc(Cl)c(Cl)c1" , write its D2 antag [%].
53

----------
system: α1 adrenergic receptors (rat cerebral cortex); assay: Radioligand binding assay, adrenergic α1 receptors; settings: test compound 1×10^−6 M
Endpoint Label: α1 [%] (%)
Write it as a number; the unit % goes unstated.

See these solved cases before continuing.
Compound	α1 [%] / %
Cc1ccc(S(=O)(=O)NCC2CCN(CCOc3cccc4c3OCCO4)C2)cc1 (stereo not drawn) [Compound 291]	66
Cc1cccc(S(=O)(=O)NC2CCN(CCOc3cccc4c3OCCO4)C2)c1 (stereo not drawn) [Compound 97]	64
O=S(=O)(NCC1CCN(CCOc2cccc3ccccc23)C1)c1ccc2cc(Cl)ccc2c1 (stereo not drawn) [Compound 270]	−5

For O=S(=O)(NC1CCN(CCCc2c[nH]c3ccc(F)cc23)C1)c1ccc(F)cc1 (stereo not drawn) [Compound 75] , write its α1 [%].
45

For O=S(=O)(NC1CCN(CCCc2noc3cc(F)ccc23)C1)c1cc2ccccc2s1 (stereo not drawn) [Compound 25] , write its α1 [%].
85

For O=S(=O)(NC1CCN(CCCc2c[nH]c3ccc(F)cc23)C1)c1ccc(Cl)cc1 (stereo not drawn) [Compound 77] , write its α1 [%].
29

For O=S(=O)(NC1CN(CCOc2cccc3[nH]ccc23)C1)c1cccc(Cl)c1 [Compound 47] , write its α1 [%].
71

----------
system: σ receptors; experiment: Radioligand binding assay, σ receptors; conditions: rat cerebral cortex, [3H]DTG 8 nM
# reported σ [%]; entries follow
Write it as a number; the unit % goes unstated.

See these solved cases before continuing.
Molecule	σ [%] (%)
O=S(=O)(NC1CCN(CCCc2c[nH]c3ccc(Cl)cc23)C1)c1cccc(F)c1 (centres unmarked) [Compound 82]	63
O=S(=O)(NC1CCN(CCCc2noc3cc(F)ccc23)C1)c1cc2ccccc2o1 (centres unmarked) [Compound 216]	88
Cc1cccc(S(=O)(=O)NC2CCN(CCCc3c[nH]c4ccc(Cl)cc34)C2)c1 (centres unmarked) [Compound 86]	65
O=S(=O)(NCC1CN(CCCc2noc3cc(F)ccc23)C1)c1ccc(-c2ccccc2)cc1 [Compound 135]	94
Cc1ccc2sc(S(=O)(=O)NC3CCN(CCCc4noc5cc(F)ccc45)C3)cc2c1 (centres unmarked) [Compound 226]	82
O=S(=O)(NC1CCN(CCOc2cccc3[nH]ccc23)CC1)c1ccccc1 [Compound 55]	37
O=S(=O)(NCC1CN(CCCc2noc3cc(F)ccc23)C1)c1ccc2ccccc2c1 [Compound 134]	88

For O=S(=O)(NC1CCN(CCCc2noc3cc(F)ccc23)C1)c1cc2ccccc2s1 (centres unmarked) [Compound 25] , write its σ [%].
70

----------
target: M3 muscarinic receptors (Homo sapiens); construct: expressed in transfected cells; host or cells: CHO cells; test: Radioligand binding assay, muscarinic M3 receptors; details: test compound 1×10^−6 M
Sequence (P20309 whole entry): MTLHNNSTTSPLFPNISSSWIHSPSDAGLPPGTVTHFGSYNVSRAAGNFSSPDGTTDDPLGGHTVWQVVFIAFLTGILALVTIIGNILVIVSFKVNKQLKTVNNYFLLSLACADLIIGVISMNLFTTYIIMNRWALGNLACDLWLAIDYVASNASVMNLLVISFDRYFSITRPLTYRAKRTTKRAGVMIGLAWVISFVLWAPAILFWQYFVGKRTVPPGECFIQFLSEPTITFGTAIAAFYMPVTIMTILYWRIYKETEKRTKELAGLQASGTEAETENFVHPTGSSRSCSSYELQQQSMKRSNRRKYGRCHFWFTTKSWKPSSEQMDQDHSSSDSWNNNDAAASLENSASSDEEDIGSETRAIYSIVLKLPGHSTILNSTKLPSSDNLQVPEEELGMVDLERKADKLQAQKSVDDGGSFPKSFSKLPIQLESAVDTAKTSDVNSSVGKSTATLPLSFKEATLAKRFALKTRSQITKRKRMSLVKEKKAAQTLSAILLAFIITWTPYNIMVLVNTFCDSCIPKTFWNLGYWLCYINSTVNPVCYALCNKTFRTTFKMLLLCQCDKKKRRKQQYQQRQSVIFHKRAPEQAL
Endpoint Label: inhibition at 1 µM (%)
Write it as a number; the unit % goes unstated.

Compound	inhibition at 1 µM, %
O=S(=O)(NCC1CN(CCOc2cccc3ccccc23)C1)c1ccc2ccccc2c1 [Compound 122]	30
O=S(=O)(NCC1CN(CCOc2cccc3c2OCCO3)C1)c1ccc(Cl)c(Cl)c1 [Compound 183]	13
O=S(=O)(NCC1CCN(CCOc2cccc3c2OCCO3)C1)c1cccc(F)c1 (stereo not shown) [Compound 298]	22

Shift focus to the following entry.
For Cc1c(S(=O)(=O)NCC2CN(CCCc3noc4cc(F)ccc34)C2)sc2ccc(F)cc12 [Compound 130] , write its inhibition at 1 µM.
15
